- Assay protocol: DUSP6 inhibitors restoring Erk phosphorylation by chemical complementation, primary imaging in DUSP6-transfected HeLa (AID 609)
- Measurement setup: HeLa MKP-3 transfected, phospho-Erk imaging KS statistic; measured here: nuclear c-Myc green intensity z-score; at 10 µM; cells stimulated with TPA for 15 min
Tag: 1 (yes) if measured z-score is not below -0.1, 0 (no) if it is.

{"columns": ["Molecule", "Group label"],
 "data": [
  ["Nc1nc(NC(=O)Cc2ccccc2)nn1-c1ccccc1", "1 (yes)"],
  ["COc1ccc(/C=N/n2cncn2)cc1CSc1ccccn1", "1 (yes)"],
  ["COc1ccc(CCNc2nc3c(c(=O)n(C)c(=O)n3C)n2C)cc1OC", "1 (yes)"],
  ["CN(Cc1c(O)ccc2c1oc(=O)c1ccccc12)C1CCCCC1", "1 (yes)"],
  ["COc1ccc(OCC(O)Cn2c(Nc3cccc(C)c3)nc3c2c(=O)n(C)c(=O)n3C)cc1 (stereo unspecified)", "0 (no)"]
]}

Task: Exam item: decide whether the reported z-score for `Cc1ccc2cc(CN(C(=O)c3ccco3)c3ccccc3C)c(=O)[nH]c2c1` is at least -0.1.
Output: 0 (no)

Task: Exam item: decide whether the reported z-score for `CCc1c(C(=O)O)[nH]c2ccc(Br)cc12` is at least -0.1.
Output: 0 (no)

Task: Exam item: decide whether the reported z-score for `CCOC(=O)c1c(C)n(C)c2ccc(OC)c(NC(=O)CN3CCCCC3)c12` is at least -0.1.
Output: 0 (no)

Task: Exam item: decide whether the reported z-score for COc1ccccc1C1/C(=C(/O)c2cnn(-c3ccccc3)c2C)C(=O)C(=O)N1CCN(C)C (stereo unspecified) is at least -0.1.
Output: 0 (no)

Task: Exam item: decide whether the reported z-score for `O=C(O)Cc1cc(I)c(Oc2ccc(O)c(I)c2)c(I)c1` is at least -0.1.
Output: 0 (no)

Task: Exam item: decide whether the reported z-score for `Nc1ccc2ncccc2c1N` is at least -0.1.
Output: 1 (yes)

====

- Measurement target: Voltage-gated potassium channel subunit beta-2 (Rattus norvegicus) (UniProt P62483)
- Sequence (P62483 whole entry, looked up): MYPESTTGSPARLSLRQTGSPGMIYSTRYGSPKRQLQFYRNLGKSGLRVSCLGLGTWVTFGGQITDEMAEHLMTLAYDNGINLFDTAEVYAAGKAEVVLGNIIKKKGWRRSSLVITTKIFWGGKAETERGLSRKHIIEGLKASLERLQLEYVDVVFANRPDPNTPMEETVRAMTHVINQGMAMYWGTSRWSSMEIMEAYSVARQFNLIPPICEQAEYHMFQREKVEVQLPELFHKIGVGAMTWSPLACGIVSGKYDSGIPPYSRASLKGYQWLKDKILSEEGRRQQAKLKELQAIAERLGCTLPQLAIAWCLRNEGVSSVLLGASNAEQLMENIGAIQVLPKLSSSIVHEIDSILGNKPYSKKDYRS
- Assay protocol: KvBeta positive modulators, primary screen, biochemical, NADPH fluorescence (AID 623);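 also: fluorescence intensity change per second fitted from 20 to 320 s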
- Measurement setup: Recombinant KvBeta, NADPH fluorescence decrease slope, 10 min; at 10 µM; stronger effect = lower value
Some compounds, each annotated with its measured NADPH fluorescence slope.
# respond with the number and nothing more

In the examples that follow, each entry is paired with its recorded NADPH fluorescence slope.
{"columns": ["Compound", "Measurement target", "NADPH fluorescence slope"],
 "data": [
  ["CCn1cc(C(=O)NCCc2ccccc2)c(=O)c2cc(F)c(N3CCN(C)CC3)cc21", "Voltage-gated potassium channel subunit beta-2 (Rattus norvegicus) (UniProt P62483)", "-1.5e-05"],
  ["CCOC(=O)CSc1nnc2n(C3CCCCC3)c(=O)c3c4c(sc3n12)CCCC4", "Voltage-gated potassium channel subunit beta-2 (Rattus norvegicus) (UniProt P62483)", -0.0001],
  ["CCc1cc(=O)oc2c(CN3CCN(C)CC3)c(O)c(Cl)cc12", "Voltage-gated potassium channel subunit beta-2 (Rattus norvegicus) (UniProt P62483)", "-4.4e-05"],
  ["CCCCOC(=O)CSC1=C(C#N)C(c2ccccc2OC)C(C#N)C(=O)N1 (stereo unspecified)", "Voltage-gated potassium channel subunit beta-2 (Rattus norvegicus) (UniProt P62483)", -0.000165],
  ["O=S(=O)(c1ccccc1)N1CCC(N2CCCCCC2)CC1", "Voltage-gated potassium channel subunit beta-2 (Rattus norvegicus) (UniProt P62483)", "2.7e-05"]
]}

Then this compound:
For the compound CC1(C2(O)CC(c3ccccc3)ON2)CCCCC1 (stereo unspecified) , the measured NADPH fluorescence slope on Voltage-gated potassium channel subunit beta-2 (Rattus norvegicus) (UniProt P62483) was -7.6e-05
